B1: TPR 5TU (parent)
chain: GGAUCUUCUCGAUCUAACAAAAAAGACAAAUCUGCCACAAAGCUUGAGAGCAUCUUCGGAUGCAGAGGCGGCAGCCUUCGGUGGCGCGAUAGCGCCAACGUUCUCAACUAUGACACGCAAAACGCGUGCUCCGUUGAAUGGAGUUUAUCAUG

# Variants of: B1
# Assay Remarks: polymerase ribozyme fitness, log enrichment relative to wild type (log ratio); higher = more active; in vitro selection for triplet polymerase activity
Fewer inactive variants are shown than the library holds.
Reported polymerase ribozyme fitness (log ratio) is given for each of the following variants.

- Mutant Code: "A20U G46C G62U C75G G92A G140C"
  polymerase ribozyme fitness (log ratio): "≤ -4.2"
- Mutant Code: "G42C U44G A106G"
  polymerase ribozyme fitness (log ratio): "≤ -4.2"
- Mutant Code: "A29U G48U U61G G83C"
  polymerase ribozyme fitness (log ratio): "≤ -4.2"
- Mutant Code: "A64G C75G G84U U127A A142U"
  polymerase ribozyme fitness (log ratio): "≤ -4.2"
- Mutant Code: "U7C A21C A24C G62C C76A G133C"
  polymerase ribozyme fitness (log ratio): "≤ -4.2"
- Mutant Code: "G68U C85A A110G C132G A137G G141C U151G"
  polymerase ribozyme fitness (log ratio): "≤ -4.2"
- Mutant Code: "C18A A19U C76A C85U C99U U104G A110G G143C"
  polymerase ribozyme fitness (log ratio): "≤ -4.2"
- Mutant Code: "U7A A121U A138G"
  polymerase ribozyme fitness (log ratio): "≤ -4.2"
- Mutant Code: "G100U U139G U146G"
  polymerase ribozyme fitness (log ratio): "≤ -4.2"
- Mutant Code: "C35U G81U U82G G88U G94U U139C C149A"
  polymerase ribozyme fitness (log ratio): "≤ -4.2"
- Mutant Code: "C14G G86C"
  polymerase ribozyme fitness (log ratio): "≤ -4.2"
- Mutant Code: "A97G C116U G133U"
  polymerase ribozyme fitness (log ratio): "≤ -4.2"
- Mutant Code: "U31A G84A G100A C108G C123G"
  polymerase ribozyme fitness (log ratio): "≤ -4.2"
- Mutant Code: "U61A A66U U82C G92C C95G"
  polymerase ribozyme fitness (log ratio): "≤ -4.2"
- Mutant Code: "A20C U127G G133C U134C A137C A138G G140A"
  polymerase ribozyme fitness (log ratio): "≤ -4.2"
- Mutant Code: "C35G C54U A60U C85A"
  polymerase ribozyme fitness (log ratio): "≤ -4.2"
- Mutant Code: "C69G C93A"
  polymerase ribozyme fitness (log ratio): "≤ -4.2"
- Mutant Code: "A47G C63G G74C A120G"
  polymerase ribozyme fitness (log ratio): "≤ -4.2"
- Mutant Code: "A26G A29C C79A G100A"
  polymerase ribozyme fitness (log ratio): "≤ -4.2"
- Mutant Code: "G84U C87G U90C C96U U145G"
  polymerase ribozyme fitness (log ratio): "≤ -4.2"
- Mutant Code: "A17U A21G A22C C38U A66U U82C G100A C125U"
  polymerase ribozyme fitness (log ratio): "≤ -4.2"
- Mutant Code: "U6C C10A A24U A110G"
  polymerase ribozyme fitness (log ratio): "≤ -4.2"
- Mutant Code: "A16C A40U C93A A122G G141C"
  polymerase ribozyme fitness (log ratio): "≤ -4.2"
- Mutant Code: "A91U C103U U145A"
  polymerase ribozyme fitness (log ratio): "≤ -4.2"
- Mutant Code: "C87A C105U A107U"
  polymerase ribozyme fitness (log ratio): "≤ -4.2"
- Mutant Code: "U33C A39U G62A G86A A107U"
  polymerase ribozyme fitness (log ratio): "≤ -4.2"
- Mutant Code: "U7G C32U C54G C96U"
  polymerase ribozyme fitness (log ratio): "≤ -4.2"
- Mutant Code: "G11C A40G G84A A97C G126A"
  polymerase ribozyme fitness (log ratio): "≤ -4.2"
- Mutant Code: "A20U G62U G86A A107U G140A"
  polymerase ribozyme fitness (log ratio): "≤ -4.2"
- Mutant Code: "C10U C69U A147C U148G C149G"
  polymerase ribozyme fitness (log ratio): "≤ -4.2"
- Mutant Code: "C32U G88A U145G"
  polymerase ribozyme fitness (log ratio): "≤ -4.2"
